# study target: T1, cyno EpCAM expressed on 293 cells (cynomolgus monkey)
# T1 construct: whole, on cells; also called 293 cells expressing cyno EpCAM
# T1 sequence (Q1WER1 24-314): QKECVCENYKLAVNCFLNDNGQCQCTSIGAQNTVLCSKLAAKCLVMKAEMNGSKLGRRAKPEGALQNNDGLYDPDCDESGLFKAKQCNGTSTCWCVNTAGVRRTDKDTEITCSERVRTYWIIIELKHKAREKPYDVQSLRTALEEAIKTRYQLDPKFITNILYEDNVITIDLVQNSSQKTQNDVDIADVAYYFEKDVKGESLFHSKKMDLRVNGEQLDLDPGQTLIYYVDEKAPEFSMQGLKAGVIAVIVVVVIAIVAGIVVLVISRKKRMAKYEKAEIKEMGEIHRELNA
# experiment: FACS of MMAE conjugates on 293 cells expressing cyno EpCAM, pH 6.0
reported metric: EC50 (µg/mL)
Please give a number only; it is taken to be in µg/mL.

{"binder": "BA-105.4-02-01 8318-vcMMAE (antibody, V domains shown, antibody conjugated to vcMMAE; chain and residues of attachment not stated) VH: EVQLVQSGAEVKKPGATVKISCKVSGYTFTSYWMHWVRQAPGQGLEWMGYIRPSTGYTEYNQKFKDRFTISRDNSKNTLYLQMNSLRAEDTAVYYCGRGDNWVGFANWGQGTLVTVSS VL: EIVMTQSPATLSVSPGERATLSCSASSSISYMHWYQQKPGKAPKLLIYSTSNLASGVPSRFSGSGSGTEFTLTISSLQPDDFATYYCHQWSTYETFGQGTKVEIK", "EC50 (µg/mL)": 7.96}
{"binder": "BA-105.4-01-05 8317-vcMMAE (antibody, V domains shown, antibody conjugated to vcMMAE; chain and residues of attachment not stated) VH: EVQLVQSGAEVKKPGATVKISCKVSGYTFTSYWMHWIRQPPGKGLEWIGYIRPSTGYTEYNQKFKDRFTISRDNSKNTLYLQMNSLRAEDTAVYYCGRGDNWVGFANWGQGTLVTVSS VL: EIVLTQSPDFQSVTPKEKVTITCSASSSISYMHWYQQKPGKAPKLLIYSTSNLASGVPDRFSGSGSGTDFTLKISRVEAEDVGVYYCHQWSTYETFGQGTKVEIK", "EC50 (µg/mL)": 5.54}
{"binder": "BA-105-01-01 7376-vcMMAE (antibody, V domains shown, antibody conjugated to vcMMAE; chain and residues of attachment not stated) VH: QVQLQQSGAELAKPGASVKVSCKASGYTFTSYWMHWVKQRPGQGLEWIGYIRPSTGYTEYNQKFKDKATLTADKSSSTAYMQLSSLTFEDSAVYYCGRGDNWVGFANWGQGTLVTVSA VL: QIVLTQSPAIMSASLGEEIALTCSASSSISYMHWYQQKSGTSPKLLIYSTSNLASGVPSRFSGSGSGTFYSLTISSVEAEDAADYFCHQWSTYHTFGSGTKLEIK", "EC50 (µg/mL)": 1.36}

Lab note: next binder to report on.
[in] Give the measured EC50 of BA-105.4-01-02 8316-vcMMAE (antibody, V domains shown, antibody conjugated to vcMMAE; chain and residues of attachment not stated) VH: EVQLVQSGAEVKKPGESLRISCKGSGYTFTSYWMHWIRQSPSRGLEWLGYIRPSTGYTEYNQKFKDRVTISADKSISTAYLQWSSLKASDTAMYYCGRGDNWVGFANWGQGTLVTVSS VL: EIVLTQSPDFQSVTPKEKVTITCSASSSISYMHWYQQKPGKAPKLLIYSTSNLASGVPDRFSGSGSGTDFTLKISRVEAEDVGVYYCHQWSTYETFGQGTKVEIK .
[out] 4.72
